Provenance of the data: ChEMBL document CHEMBL1125156

# measurement_target: Myeloblastin (Homo sapiens)
# run_description: Evaluated for the inhibition of Human leukocyte Proteinase 3 (PR-3)
The following ranges of K obs / 1 define the classes used here: LOW: < 2000 M⁻¹ s⁻¹; MEDIUM: ≥ 2000 M⁻¹ s⁻¹ and < 8000 M⁻¹ s⁻¹; HIGH: ≥ 8000 M⁻¹ s⁻¹

// known answers, use as guide
- molecule: "CC1CC(=O)N(OS(C)(=O)=O)C1=O (stereo not given)"
  cat: "MEDIUM"
- molecule: "CC(C)CC1CC(=O)N(OS(=O)(=O)/C=C/c2ccccc2)C1=O (stereo not given)"
  cat: "HIGH"
- molecule: "CC(C)C1CC(=O)N(OS(C)(=O)=O)C1=O (stereo not given)"
  cat: "MEDIUM"
- molecule: "CC(C)CC1CC(=O)N(OS(C)(=O)=O)C1=O (stereo not given)"
  cat: "LOW"
- molecule: "CC1CC(=O)N(OS(=O)(=O)/C=C/c2ccccc2)C1=O (stereo not given)"
  cat: "MEDIUM"

Field: class (K obs / 1) — entry: CCC1CC(=O)N(OS(C)(=O)=O)C1=O (stereo not given) HIGH

Could you tell me which band CCCC1CC(=O)N(OS(C)(=O)=O)C1=O (stereo not given) belongs to? HIGH

Hello team, could you let me know which band the following molecule falls into: CCCCC1CC(=O)N(OS(C)(=O)=O)C1=O (stereo not given) LOW

Assign a bin to CCCCC1CC(=O)N(OS(=O)(=O)/C=C/c2ccccc2)C1=O (stereo not given) MEDIUM
